Test system: Human immunodeficiency virus 1
Assay: Antiviral activity against HIV-1 JRFL infected in human TZM-bl cells assessed as inhibition of viral growth incubated for 48 hrs by luminometer based neutralization assay
Format: functional, organism-based
Conditions: Human immunodeficiency virus 1, JRFL
pIC50: −log10 of the molar value.
Would you please tag the item Yes when its pIC50 is 5 or above, and No when it is below?

• NC(=O)C[C@H](N)C(=O)N1CCN(C(=O)N2CCC[C@H](C(=O)Nc3ccc(Cl)c(F)c3)C2)CC1 = No
• N[C@@H](Cc1ccc(O)cc1)C(=O)N1CCN(C(=O)N2CCC[C@H](C(=O)Nc3ccc(Cl)c(F)c3)C2)CC1 = No
• NCCNC(=O)N1CCC[C@H](C(=O)Nc2ccc(Cl)c(F)c2)C1 = No
• CC(=O)NCSC[C@H](N)C(=O)N1CCN(C(=O)N2CCC[C@H](C(=O)Nc3ccc(Cl)c(F)c3)C2)CC1 = No
• N=C(N)NCCC[C@H](N)C(=O)N1CCN(C(=O)N2CCC[C@H](C(=O)Nc3ccc(Cl)c(F)c3)C2)CC1 = No

Form field: pIC50 at least 5? Entry: CNCc1ccc2c(c1)C[C@H](CNC(=N)N)[C@H]2NC(=O)C(=O)Nc1ccc(Cl)c(F)c1
Yes

Form field: pIC50 at least 5? Entry: C[C@H](N)C(=O)N1CCN(C(=O)N2CCC[C@H](C(=O)Nc3ccc(Cl)c(F)c3)C2)CC1
Yes

---

Tested on: Human immunodeficiency virus 1
Assay: Antiviral activity against HIV-1 JRFL infected in human TZM-bl cells assessed as inhibition of viral growth incubated for 48 hrs by luminometer based neutralization assay
Type: functional, organism-based
Settings: Human immunodeficiency virus 1, JRFL
metricName: pIC50
Hey, just a heads up that pIC50 is the negative log base 10 of the concentration in molar.

Would you please look over these solved cases?
• C[C@@H](O)[C@H](N)C(=O)N1CCN(C(=O)N2CCC[C@H](C(=O)Nc3ccc(Cl)c(F)c3)C2)CC1 = 4.86
• N=C(N)N1CCC[C@@H]1C(=O)N1CCN(C(=O)N2CCC[C@H](C(=O)Nc3ccc(Cl)c(F)c3)C2)CC1 = 5.08

Next up:
Identify measured pIC50 corresponding to N=C(N)NCC(=O)N1CCN(C(=O)N2CCC[C@H](C(=O)Nc3ccc(Cl)c(F)c3)C2)CC1
4.97
